Values were extracted from ChEMBL document CHEMBL1201862.

# subject-of-test: Protein Tat (Human immunodeficiency virus type 1 group M subtype B (isolate HXB2)(HIV-1), UniProt P04608)
# Sequence (P04608 whole entry): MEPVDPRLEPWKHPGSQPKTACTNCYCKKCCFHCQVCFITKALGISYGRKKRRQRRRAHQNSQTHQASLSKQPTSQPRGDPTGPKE
# Format: functional
The source made the active and inactive calls.
observable: IC50

Completed entries (count: 3):
- COc1cc(C2Nc3cccc4cccc(c34)N2)cc(OC)c1O: 13.1 µM (inconclusive)
- COCOC1CCC2C3CCC4=CC(=O)CCC4=C3C=CC12C (centres undefined): > 100 µM (active)
- COc1ccc(/N=C2/S/C(=C\c3ccc(C)o3)C(=O)N2CC(C)C)cc1: > 100 µM (active)

Now let's try a different one.
Quick check: IC50 of COc1cc2c3c(c1OC)C1(C=CC(=O)C=C1)CC3N(C(=O)CCC(=O)O)CC2 (centres undefined) ?
> 100 µM (active)

###

# subject-of-test: UniProt P38532
# Sequence (P38532 whole entry): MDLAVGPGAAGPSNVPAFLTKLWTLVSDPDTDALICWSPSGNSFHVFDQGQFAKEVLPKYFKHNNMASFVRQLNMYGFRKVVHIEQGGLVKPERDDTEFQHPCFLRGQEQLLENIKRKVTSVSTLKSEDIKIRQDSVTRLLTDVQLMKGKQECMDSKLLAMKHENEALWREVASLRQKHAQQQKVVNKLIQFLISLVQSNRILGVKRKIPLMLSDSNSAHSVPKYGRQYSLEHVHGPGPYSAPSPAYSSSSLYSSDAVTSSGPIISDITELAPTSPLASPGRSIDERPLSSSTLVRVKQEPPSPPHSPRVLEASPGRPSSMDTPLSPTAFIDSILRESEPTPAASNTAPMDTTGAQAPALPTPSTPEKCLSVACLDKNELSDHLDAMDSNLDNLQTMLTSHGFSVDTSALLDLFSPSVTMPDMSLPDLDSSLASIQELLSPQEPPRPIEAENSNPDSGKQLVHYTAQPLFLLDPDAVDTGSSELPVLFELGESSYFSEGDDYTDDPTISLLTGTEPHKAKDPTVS
# procedure-details: HSF1 potentiators in luciferase reporter cells, confirmation, cell-based, NIH3T3, luminescence, dose retest (AID 435004);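 further: stress induced by proteasome inhibitor MG132 added 30 min after compound; luciferase reporter driven by HSF1 response element in NIH3T3 cells; actives raise luminescence as potentiators of the MG132 stress response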
# Format: functional
Active and inactive are the calls of the source.
Return exactly one item of T = active, F = inactive

Look up the recorded call for O=C(Nc1cccc(Cl)c1)N1CCC(CO)(CCOc2ccccc2)CC1 in this test.
T

Entry S=C(Nc1ccc(Cl)cc1)Nc1cccc2cnccc12 : call = ?
F

Per the assay record, what outcome was assigned to COc1ccc(CCN2C(=O)C3C(C2=O)C2C=CC3C23CC3)cc1OC (centres undefined) ?
F

What call does the record list for CC(C)Cn1c(N)c(C(=O)COC(=O)c2ccc([N+](=O)[O-])o2)c(=O)n(C)c1=O ?
T

GET /call?item= Cc1sc2nc(C)n(/N=C/c3ccc(O)cc3O)c(=O)c2c1C returns the recorded outcome of this test.
F

###

# subject-of-test: FAD-linked sulfhydryl oxidase ALR (Homo sapiens)
# Sequence (P55789 whole entry): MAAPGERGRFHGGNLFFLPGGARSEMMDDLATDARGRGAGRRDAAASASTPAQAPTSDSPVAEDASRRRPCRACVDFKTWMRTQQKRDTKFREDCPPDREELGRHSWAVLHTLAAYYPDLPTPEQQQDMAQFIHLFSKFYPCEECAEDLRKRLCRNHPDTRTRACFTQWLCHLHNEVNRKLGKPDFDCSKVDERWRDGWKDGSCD
# procedure-details: inhibitors of human ALR sulfhydryl oxidase, dose response, biochemical, H2O2 detection, luminescence, cherry-pick (AID 493248)
Activity calls are given as the source filed them.
Can you answer with just one of these options? 1 for active, -1 for inactive

Worked examples, 4 compounds total:
- N#CCC(=O)Nc1ccc(C(=O)NCc2cccc(Cl)c2)cc1: 1
- COc1cc(/C=N/NC(=O)c2cc(C3CC3)[nH]n2)ccc1O: 1
- Cc1ccc(O)c(CNc2nc3ccccc3n2C)c1: 1
- CC(C)CN1C(=O)c2ccc(C(=O)Nc3ccccc3C(=O)O)cc2C1=O: -1

Recorded call for CCc1ccccc1N1C(=O)CC(N2CCc3ccccc32)C1=O (stereo not given) ?
1

###

# subject-of-test: Streptokinase A (Streptococcus pyogenes serotype M1, UniProt P10520)
# Sequence (P10520 whole entry): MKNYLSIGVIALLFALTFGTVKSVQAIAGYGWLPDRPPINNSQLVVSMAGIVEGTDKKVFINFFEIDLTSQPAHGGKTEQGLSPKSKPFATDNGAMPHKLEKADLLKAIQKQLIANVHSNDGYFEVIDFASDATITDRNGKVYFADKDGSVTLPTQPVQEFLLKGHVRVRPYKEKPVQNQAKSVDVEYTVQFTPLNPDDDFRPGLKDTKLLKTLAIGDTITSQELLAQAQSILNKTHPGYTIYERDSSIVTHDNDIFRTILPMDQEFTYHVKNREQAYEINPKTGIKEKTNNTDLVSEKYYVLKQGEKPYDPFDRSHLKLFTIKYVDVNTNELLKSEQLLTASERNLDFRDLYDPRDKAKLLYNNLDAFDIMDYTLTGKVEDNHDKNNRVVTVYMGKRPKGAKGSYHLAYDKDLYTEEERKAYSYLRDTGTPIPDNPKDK
# procedure-details: S. pyogenes streptokinase expression inhibitors, potency, dose response, plasminogen activation absorbance, OD405 (AID 1914)
# Format: functional, Streptococcus pyogenes M1 GAS
Activity calls are given as the source filed them.
Quick list: EC50 per entry.

• O=C(/C=C/c1ccccc1)NC(NC(=S)Nc1cc(Cl)ccc1Cl)C(Cl)(Cl)Cl (stereo not given) = 4.43 µM (active)
• CC(=O)Nc1nc2ccccc2n1CCOc1ccccc1 = > 150 µM (not active)
• CCc1ccc(-c2cc(C(=O)N/N=C/c3c[nH]c4ccccc34)[nH]n2)cc1 = > 150 µM (not active)
• Cc1sc(NC(=O)C2C3C=CC(C3)C2C(=O)O)c(C(N)=O)c1-c1ccc(C(C)C)cc1 (stereo not given) = 32.2 µM (active)

# input for lookup
Field request: EC50 | item: Fc1ccc(-n2cc(-c3ccccc3)c3c(S)ncnc32)cc1
> 150 µM (not active)

###

Reported EC50 values are given for each entry in this list.
# subject-of-test: Streptokinase A (Streptococcus pyogenes serotype M1, UniProt P10520)
# procedure-details: S. pyogenes streptokinase expression inhibitors, potency, dose response, plasminogen activation absorbance, OD405 (AID 1914);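 further: secreted streptokinase activity via plasminogen activation per viability signal from cell pellet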
# Assay type: functional, Streptococcus pyogenes M1 GAS
Activity calls are given as the source filed them.

Take a look at these entries with their results.
* COc1ccccc1OCC(=O)Nc1c2c(nn1-c1ccc(F)cc1)CS(=O)(=O)C2 | > 150 µM (not active)
* O=[N+]([O-])c1c(NCCCO)cc(Sc2nc3ccccc3s2)c2nonc12 | 5.49 µM (active)
* O=C(c1cc(-c2ccc(Br)cc2)nc2ccccc12)N1CCN(c2ccccc2O)CC1 | 29.2 µM (active)
* CCc1c(C)nc2cc(-c3ccc(OC)c(OC)c3)nn2c1N1CCC(C)CC1 | 16.6 µM (active)
* CN(C)c1ccc(/C=N/Nc2nc3ccccc3o2)cc1 | > 150 µM (not active)

Which EC50 reading was recorded for the molecule c1ccc(-c2cc3c(NCC4COc5ccccc5O4)ncnc3s2)cc1 (centres undefined) ?
3.29 µM (active)

Which EC50 value is on record for Oc1[nH]c2ccccc2c1N=NC(=S)N1CCOCC1 ?
> 150 µM (not active)

Recorded EC50 of Cc1nnc(-c2ccccc2)c(=O)n1/N=C/c1c(O)ccc2ccccc12 , please.
> 150 µM (not active)

Query: EC50; subject: CN1/C(=C\C(=O)Nc2ccc(Cl)cc2)C(C)(C)c2ccccc21
> 150 µM (not active)

###

The entries below come with measured EC50 values attached.
# subject-of-test: UniProtKB P38532
# procedure-details: inhibition of MG132-induced HSE-luciferase signal, confirmation, cell-based, NIH3T3, luminescence, dose retest (AID 2382);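 further: NIH3T3 fibroblasts with HSF1-driven luciferase reporter stressed by proteasome inhibitor MG132; luminescence from HSF1-driven luciferase expression after 8 hours of MG132 stress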
# Format: functional
The source made the active and inactive calls.

Quick one: EC50 for CCOc1cc(C(=O)NCc2ccccc2)ccc1OCC(=O)N1CCOCC1 ?
> 195 µM (not active)

Any idea what its EC50 is? The molecule is NC=C1C(=O)N(c2ccccc2)C(=O)N(c2ccccc2)C1=O
> 195 µM (not active)

Quick check: EC50 of NC(=O)c1ccsc1NC(=O)C1CCCCC1 ?
> 195 µM (not active)

Look up EC50: Oc1nc2ccccc2n2cnnc12
> 195 µM (not active)

Any idea what its EC50 is? The molecule is Cc1ccc(NC(=O)CCN2CCCCC2)cc1
4.53 µM (active)

###

// reported EC50 for each item listed
# subject-of-test: Zinc finger protein mex-5 (Caenorhabditis elegans, UniProt Q9XUB2)
# Sequence (Q9XUB2 whole entry): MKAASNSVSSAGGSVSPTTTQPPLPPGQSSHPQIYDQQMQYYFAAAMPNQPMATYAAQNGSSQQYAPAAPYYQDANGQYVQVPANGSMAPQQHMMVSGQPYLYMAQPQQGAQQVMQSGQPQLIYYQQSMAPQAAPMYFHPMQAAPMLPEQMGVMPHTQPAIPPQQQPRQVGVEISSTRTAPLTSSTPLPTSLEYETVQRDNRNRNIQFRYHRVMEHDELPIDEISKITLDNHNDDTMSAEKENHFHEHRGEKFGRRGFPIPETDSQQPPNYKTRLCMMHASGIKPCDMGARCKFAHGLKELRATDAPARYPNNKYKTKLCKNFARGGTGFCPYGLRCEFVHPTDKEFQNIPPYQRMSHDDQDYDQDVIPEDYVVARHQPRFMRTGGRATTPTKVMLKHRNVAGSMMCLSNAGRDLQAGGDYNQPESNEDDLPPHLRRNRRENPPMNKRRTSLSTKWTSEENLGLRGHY
# procedure-details: MEX-5/TCR-2 RNA interaction inhibitors, dose response, biochemical, C. elegans, fluorescence polarization (AID 1960)

Returns the measured EC50 for the input compound. Input: NC(=O)c1c(NC(=O)c2ccccc2)sc2c1CCN(Cc1ccccc1)C2
> 300 µM (inconclusive)

###

# subject-of-test: Genome polyprotein (dengue virus type 2, UniProt P29990)
# Sequence (P29990 2492-3391 limits assumed): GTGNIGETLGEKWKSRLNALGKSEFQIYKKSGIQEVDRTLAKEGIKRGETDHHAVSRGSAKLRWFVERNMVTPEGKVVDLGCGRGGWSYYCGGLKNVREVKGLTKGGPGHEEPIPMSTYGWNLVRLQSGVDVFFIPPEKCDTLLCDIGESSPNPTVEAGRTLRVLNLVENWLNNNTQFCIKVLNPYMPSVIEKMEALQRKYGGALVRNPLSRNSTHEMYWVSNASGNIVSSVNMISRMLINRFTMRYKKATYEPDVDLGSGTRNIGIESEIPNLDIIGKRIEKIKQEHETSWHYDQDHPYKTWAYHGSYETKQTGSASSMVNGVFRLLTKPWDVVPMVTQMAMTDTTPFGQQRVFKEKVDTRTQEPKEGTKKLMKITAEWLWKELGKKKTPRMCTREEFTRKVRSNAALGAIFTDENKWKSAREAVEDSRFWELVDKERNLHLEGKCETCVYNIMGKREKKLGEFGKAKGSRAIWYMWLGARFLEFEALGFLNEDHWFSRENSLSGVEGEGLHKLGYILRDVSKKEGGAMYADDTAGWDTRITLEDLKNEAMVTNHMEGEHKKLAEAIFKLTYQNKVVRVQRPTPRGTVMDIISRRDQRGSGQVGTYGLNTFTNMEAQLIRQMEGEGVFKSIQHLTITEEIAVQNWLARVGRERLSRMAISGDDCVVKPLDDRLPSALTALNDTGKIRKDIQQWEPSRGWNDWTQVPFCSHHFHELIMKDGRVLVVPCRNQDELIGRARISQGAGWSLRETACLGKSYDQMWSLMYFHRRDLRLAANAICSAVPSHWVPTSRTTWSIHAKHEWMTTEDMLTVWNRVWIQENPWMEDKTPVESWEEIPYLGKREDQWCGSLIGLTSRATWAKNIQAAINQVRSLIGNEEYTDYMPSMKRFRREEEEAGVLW
# procedure-details: Dengue-2 NS5 methyltransferase inhibitors, primary screen, biochemical, confirmation dose response (AID 588689)
# Type: functional
Activity calls are given as the source filed them.
observable: IC50

- Cc1cc(C(C2C(=O)CC(C)(C)CC2=O)C2C(=O)CC(C)(C)CC2=O)cc(C)c1OC(F)F: 43.5 µM (active)
- CC1=NN(c2ccccc2)C(=O)/C1=C/c1cccs1: 46.8 µM (active)
- O=[N+]([O-])c1c(NCCCO)cc(Sc2nc3ccccc3s2)c2nonc12: 23 µM (active)

Requested read-out: IC50. Entry: O=C1CC(SC(=S)C2CCCC2=O)C(=O)N1 (centres undefined)
45.4 µM (active)

###

Each entry below carries its measured AC50, system: Cytochrome P450 3A4 (Homo sapiens, UniProt P08684).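 Further: CYP3A4 tested as one member of a cytochrome P450 panel screen.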
Sequence (P08684 whole entry): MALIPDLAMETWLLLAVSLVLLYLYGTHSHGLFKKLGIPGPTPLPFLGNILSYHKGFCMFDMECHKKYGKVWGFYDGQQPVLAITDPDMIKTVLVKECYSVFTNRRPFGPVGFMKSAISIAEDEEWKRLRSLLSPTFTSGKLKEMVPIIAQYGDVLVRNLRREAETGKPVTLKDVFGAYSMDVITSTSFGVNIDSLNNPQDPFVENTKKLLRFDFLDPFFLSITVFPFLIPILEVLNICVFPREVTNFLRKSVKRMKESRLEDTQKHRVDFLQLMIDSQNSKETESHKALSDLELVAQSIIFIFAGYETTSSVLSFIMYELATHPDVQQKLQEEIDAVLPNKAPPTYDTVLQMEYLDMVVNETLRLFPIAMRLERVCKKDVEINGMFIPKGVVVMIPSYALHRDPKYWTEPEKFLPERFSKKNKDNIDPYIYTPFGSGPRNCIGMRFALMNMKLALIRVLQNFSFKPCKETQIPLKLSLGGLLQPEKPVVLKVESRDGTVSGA

Previously resolved entries follow.
* FC(F)(F)c1cccc(NC(S)=Nc2ccc(Cl)cc2Cl)c1 | 28.2 µM (inconclusive)
* c1ccc(/C(=N/Nc2nc3ccccc3s2)c2ccccn2)cc1 | 3.98 µM (inconclusive)
* COCC(=O)N1CCC[C@@]2(CCN(Cc3ccccc3)C2)C1 | 25.1 µM (inconclusive)
* COc1ccc(OC)c2nc(O)c(CCNS(=O)(=O)c3ccc(Cl)cc3)cc12 | 5.62 µM (inconclusive)

Which value of AC50 has been reported for O=C(c1cnccn1)N1CCC[C@@]2(CCN(c3ncccn3)C2)C1 in the records?
15.8 µM (inconclusive)

Quick one: AC50 of COc1cccc(CC(C(=O)Nc2cc(C)ccc2C)c2nn[nH]n2)c1OC (centres undefined) ?
25.1 µM (inconclusive)

AC50 lookup needed for CN(CCCNC(=O)C1CCN(S(=O)(=O)c2cccc3nsnc23)CC1)Cc1ccccc1 , thanks.
3.16 µM (inconclusive)

# AC50 lookup, item O=C(OC1CCN(CCCl)CC1)C(c1ccccc1)c1ccccc1
10 µM (inconclusive)

Need AC50 of COc1ccc(-n2c(=O)c(C)nc3cnc(Nc4cccc(OC)c4)nc32)cc1 , thanks.
10 µM (inconclusive)
